Target: 5-HT2A Receptor (Rattus norvegicus)
Sequence (P14842 whole entry): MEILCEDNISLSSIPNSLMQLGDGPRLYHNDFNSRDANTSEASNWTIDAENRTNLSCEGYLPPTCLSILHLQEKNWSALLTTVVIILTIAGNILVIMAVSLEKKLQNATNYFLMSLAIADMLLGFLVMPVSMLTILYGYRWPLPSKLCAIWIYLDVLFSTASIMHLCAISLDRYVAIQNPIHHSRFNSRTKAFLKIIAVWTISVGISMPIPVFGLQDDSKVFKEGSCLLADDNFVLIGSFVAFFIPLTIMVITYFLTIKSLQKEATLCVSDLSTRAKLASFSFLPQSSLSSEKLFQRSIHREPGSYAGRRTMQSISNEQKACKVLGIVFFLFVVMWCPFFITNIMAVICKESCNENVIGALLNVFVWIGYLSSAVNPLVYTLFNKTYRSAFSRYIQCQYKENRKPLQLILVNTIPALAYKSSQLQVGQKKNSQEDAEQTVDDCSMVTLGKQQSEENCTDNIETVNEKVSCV
Assay: 5-HT2 Functional Assay: [Ca2+]i Mobilization (FLIPR, A7r5 cells)
Details: [Ca2+]i mobilization, A7r5 rat vascular smooth muscle cells
Structures can show the parent of a compound that is named as a salt.
What EC50 was measured for each of the following?
Give bare numbers, in µM.

Please review the following examples before continuing.
C[C@H](N)Cc1n[nH]c2ccc3c(c12)CCCO3	0.154
C[C@H](N)Cn1ncc2ccc3c(c21)C[C@@H](O)CO3	0.0653
C[C@H](N)Cn1ncc2ccc3c(c21)C=CCO3	0.0414
C[C@H](N)Cn1ncc2ccc3c(c21)C[C@@H](OCC(N)=O)CO3	0.178
C[C@H](N)Cn1ncc2ccc3c(c21)C[C@@H](OCC(=O)OC(C)(C)C)CO3 [Example 16, Dihydrochloride]	0.424

# per-item lookup of EC50; items listed below
1. C[C@H](N)Cn1ncc2ccc3c(c21)C[C@@H](OCCO)CO3.Cl.Cl [Example 13, Dihydrochloride]
2. CC(=O)NCCO[C@H]1COc2ccc3cnn(C[C@H](C)N)c3c2C1
3. C[C@H](N)Cn1ncc2ccc3c(c21)C[C@H](O)CO3
4. C[C@H](N)Cn1ncc2ccc3c(c21)CC(O)CO3 (stereo partly drawn)

1. 0.121
2. 0.202
3. 0.226
4. 0.145

# per-item lookup of EC50; items listed below
1. C[C@H](N)Cn1ncc2ccc3c(c21)CCCO3.Cl.Cl [Example 8, Dihydrochloride]
2. C[C@H](N)Cn1ncc2ccc3c(c21)C[C@@H](N)CO3.Cl.Cl.Cl [Example 6, Trihydrochloride]
3. C[C@H](N)Cn1ncc2ccc3c(c21)[C@H](O)[C@H](O)CO3 (relative stereo)

[0.09, 0.175, 0.194]
